- Test: Single subcutaneous dose of uridine with and without dilazep, plasma/urine uridine pharmacokinetics
- Assay type: in vivo, rhesus monkeys (Macaca mulatta)
- Run Conditions: rhesus monkey, plasma, sc; uridine parameter; 83.3 mg/kg uridine s.c., no dilazep
Result Type: Cmax

Fill in the blank: the reported Cmax of O=c1ccn([C@@H]2O[C@H](CO)[C@@H](O)[C@H]2O)c(=O)[nH]1 [uridine] is ____.
175 µM

---

- Test: Single subcutaneous dose of uridine with and without dilazep, plasma/urine uridine pharmacokinetics
- Assay type: in vivo, rhesus monkeys (Macaca mulatta)
- Run Conditions: rhesus monkey, plasma, sc; uridine parameter; 83.3 mg/kg uridine s.c., no dilazep
Result Type: Tmax (min)
Report the figure in min without appending any unit label.

So what does the record say about Tmax for O=c1ccn([C@@H]2O[C@H](CO)[C@@H](O)[C@H]2O)c(=O)[nH]1 [uridine] ?
30
